Reported selectivity ratio values for the following compounds.
assay: Selectivity index, ratio of IC50 for cytotoxicity against human HDF cells to IC50 for anticancer activity against human SK-OV-3 cells; format: cell-based; settings: HDF cells versus SK-OV-3 cells, read-out: Ratio IC50
MEASURED METRIC: selectivity ratio

>>> result_value("CO[C@H]1/C=C\\C=C(/C)C(=O)NC2=CC(=O)C(NCc3cn(CC4CCCCC4)nn3)=C(C[C@@H](C)C[C@H](OC)[C@H](O)[C@@H](C)/C=C(\\C)[C@@H]1OC(N)=O)C2=O")
1.48
>>> result_value("CO[C@H]1/C=C\\C=C(/C)C(=O)NC2=CC(=O)C(NCc3cn(Cc4ccc(C#N)cc4)nn3)=C(C[C@@H](C)C[C@H](OC)[C@H](O)[C@@H](C)/C=C(\\C)[C@@H]1OC(N)=O)C2=O")
1.89
>>> result_value("CO[C@H]1/C=C\\C=C(/C)C(=O)NC2=CC(=O)C(NCc3cn([C@]4(C#N)O[C@H](COC(C)=O)[C@H](OC(C)=O)[C@H](OC(C)=O)[C@H]4OC(C)=O)nn3)=C(C[C@@H](C)C[C@H](OC)[C@H](O)[C@@H](C)/C=C(\\C)[C@@H]1OC(N)=O)C2=O")
1.33
>>> result_value("CO[C@H]1/C=C\\C=C(/C)C(=O)NC2=CC(=O)C(NCCn3cc(-c4ccsc4)nn3)=C(C[C@@H](C)C[C@H](OC)[C@H](O)[C@@H](C)/C=C(\\C)[C@@H]1OC(N)=O)C2=O")
2.2
>>> result_value("CO[C@H]1/C=C\\C=C(/C)C(=O)NC2=CC(=O)C(NCc3cn(Cc4ccc(F)cc4)nn3)=C(C[C@@H](C)C[C@H](OC)[C@H](O)[C@@H](C)/C=C(\\C)[C@@H]1OC(N)=O)C2=O")
1.11

----------
test: Cytotoxicity against human HDF cells assessed as cell growth inhibition incubated for 72 hrs by SRB assay; type: toxicity, cell-based; conditions: HDF cells (normal human dermal fibroblasts, NHDF)
MEASURED METRIC: IC50 at 72 h (nM)

>>> result_value("CO[C@H]1/C=C\\C=C(/C)C(=O)NC2=CC(=O)C(NCc3cn([C@@H]4O[C@H](CO)[C@H](O)[C@H](O)[C@H]4O)nn3)=C(C[C@@H](C)C[C@H](OC)[C@H](O)[C@@H](C)/C=C(\\C)[C@@H]1OC(N)=O)C2=O")
990
>>> result_value("CO[C@H]1/C=C\\C=C(/C)C(=O)NC2=CC(=O)C(NCc3cn(CCN4C(=O)c5ccccc5C4=O)nn3)=C(C[C@@H](C)C[C@H](OC)[C@H](O)[C@@H](C)/C=C(\\C)[C@@H]1OC(N)=O)C2=O")
1960
>>> result_value("CO[C@H]1/C=C\\C=C(/C)C(=O)NC2=CC(=O)C(NCc3cn(Cc4ccc([N+](=O)[O-])cc4)nn3)=C(C[C@@H](C)C[C@H](OC)[C@H](O)[C@@H](C)/C=C(\\C)[C@@H]1OC(N)=O)C2=O")
780
>>> result_value("CO[C@H]1/C=C\\C=C(/C)C(=O)NC2=CC(=O)C(NCc3cn([C@]4(C#N)O[C@H](COC(C)=O)[C@H](OC(C)=O)[C@H](OC(C)=O)[C@H]4OC(C)=O)nn3)=C(C[C@@H](C)C[C@H](OC)[C@H](O)[C@@H](C)/C=C(\\C)[C@@H]1OC(N)=O)C2=O")
1250

----------
test: Cytotoxicity against human HDF cells assessed as cell growth inhibition incubated for 72 hrs by SRB assay; format: toxicity, cell-based; details: HDF cells (normal human dermal fibroblasts, NHDF)
Reported IC50 at 72 h values for the following molecules.
MEASURED METRIC: IC50 at 72 h (nM)

>>> result_value("CO[C@H]1/C=C\\C=C(/C)C(=O)NC2=CC(=O)C(NCc3cn(Cc4cccc(C#N)c4)nn3)=C(C[C@@H](C)C[C@H](OC)[C@H](O)[C@@H](C)/C=C(\\C)[C@@H]1OC(N)=O)C2=O")
7440
>>> result_value("CO[C@H]1/C=C\\C=C(/C)C(=O)NC2=CC(=O)C(NCc3cn(Cc4ccc(F)cc4)nn3)=C(C[C@@H](C)C[C@H](OC)[C@H](O)[C@@H](C)/C=C(\\C)[C@@H]1OC(N)=O)C2=O")
1690
>>> result_value("CO[C@H]1/C=C\\C=C(/C)C(=O)NC2=CC(=O)C(NCc3cn(Cc4ccc(C)cc4)nn3)=C(C[C@@H](C)C[C@H](OC)[C@H](O)[C@@H](C)/C=C(\\C)[C@@H]1OC(N)=O)C2=O")
1170

----------
experiment: Cytotoxicity against human HDF cells assessed as cell growth inhibition incubated for 72 hrs by SRB assay; format: toxicity, cell-based; conditions: HDF cells (normal human dermal fibroblasts, NHDF)
Please respond with true (1) when measured IC50 at 72 h is strictly beneath 2 µM, and with false (0) in all other cases.

>>> classification("CO[C@H]1/C=C\\C=C(/C)C(=O)NC2=CC(=O)C(NCc3cn([C@@H]4O[C@H](COC(C)=O)[C@H](OC(C)=O)[C@H](OC(C)=O)[C@H]4OC(C)=O)nn3)=C(C[C@@H](C)C[C@H](OC)[C@H](O)[C@@H](C)/C=C(\\C)[C@@H]1OC(N)=O)C2=O")
"true (1)"
>>> classification("CO[C@H]1/C=C\\C=C(/C)C(=O)NC2=CC(=O)C(NCc3cn([C@@H]4O[C@H](CO)[C@@H](O[C@@H]5O[C@H](CO)[C@H](O)[C@H](O)[C@H]5O)[C@H](O)[C@H]4O)nn3)=C(C[C@@H](C)C[C@H](OC)[C@H](O)[C@@H](C)/C=C(\\C)[C@@H]1OC(N)=O)C2=O")
"false (0)"
>>> classification("CO[C@H]1/C=C\\C=C(/C)C(=O)NC2=CC(=O)C(NCc3cn([C@@H]4O[C@H](CO)[C@@H](O)[C@H](O)[C@H]4O)nn3)=C(C[C@@H](C)C[C@H](OC)[C@H](O)[C@@H](C)/C=C(\\C)[C@@H]1OC(N)=O)C2=O")
"true (1)"
>>> classification("CO[C@H]1/C=C\\C=C(/C)C(=O)NC2=CC(=O)C(NCc3cn(C4CCCCCC4)nn3)=C(C[C@@H](C)C[C@H](OC)[C@H](O)[C@@H](C)/C=C(\\C)[C@@H]1OC(N)=O)C2=O")
"true (1)"
>>> classification("CO[C@H]1/C=C\\C=C(/C)C(=O)NC2=CC(=O)C(NCc3cn(C/C=C/c4ccccc4)nn3)=C(C[C@@H](C)C[C@H](OC)[C@H](O)[C@@H](C)/C=C(\\C)[C@@H]1OC(N)=O)C2=O")
"false (0)"
>>> classification("CO[C@H]1/C=C\\C=C(/C)C(=O)NC2=CC(=O)C(NCc3cn(Cc4ccc([N+](=O)[O-])o4)nn3)=C(C[C@@H](C)C[C@H](OC)[C@H](O)[C@@H](C)/C=C(\\C)[C@@H]1OC(N)=O)C2=O")
"false (0)"
>>> classification("CO[C@H]1/C=C\\C=C(/C)C(=O)NC2=CC(=O)C(NCc3cn(CC4CCCCC4)nn3)=C(C[C@@H](C)C[C@H](OC)[C@H](O)[C@@H](C)/C=C(\\C)[C@@H]1OC(N)=O)C2=O")
"false (0)"
>>> classification("CO[C@H]1/C=C\\C=C(/C)C(=O)NC2=CC(=O)C(NCCn3cc(CC(=O)O)nn3)=C(C[C@@H](C)C[C@H](OC)[C@H](O)[C@@H](C)/C=C(\\C)[C@@H]1OC(N)=O)C2=O")
"false (0)"
>>> classification("CO[C@H]1/C=C\\C=C(/C)C(=O)NC2=CC(=O)C(NCc3c[nH]nn3)=C(C[C@@H](C)C[C@H](OC)[C@H](O)[C@@H](C)/C=C(\\C)[C@@H]1OC(N)=O)C2=O")
"true (1)"
>>> classification("CO[C@H]1/C=C\\C=C(/C)C(=O)NC2=CC(=O)C(NCc3cn(Cc4ccc(C(F)(F)F)cc4)nn3)=C(C[C@@H](C)C[C@H](OC)[C@H](O)[C@@H](C)/C=C(\\C)[C@@H]1OC(N)=O)C2=O")
"true (1)"
>>> classification("CO[C@H]1/C=C\\C=C(/C)C(=O)NC2=CC(=O)C(NCc3cn(CC4OCCO4)nn3)=C(C[C@@H](C)C[C@H](OC)[C@H](O)[C@@H](C)/C=C(\\C)[C@@H]1OC(N)=O)C2=O")
"false (0)"

----------
experiment: Cytotoxicity against human HDF cells assessed as cell growth inhibition incubated for 72 hrs by SRB assay; assay type: toxicity, cell-based; details: HDF cells (normal human dermal fibroblasts, NHDF)
Starred links: 1 amine or outer side, 2 acyl side, 3 side chain; linkers in the order of their positions; H or OH if unused. Positions of bridges follow the written chain, without caps; N, C: chain ends. Non-standard residues stand in square brackets, D forms with d. Residues, ends and D or L forms follow the SMILES beside them. Chains are numbered I, II in the order given. Actinocin(9to1) = Cc1c2oc3c(C)ccc(C(=O)[*:1])c3nc-2c(C(=O)[*:2])c(N)c1=O; NMeV = CN[C@H](C(=O)O)C(C)C; Sar = CNCC(=O)O
MEASURED METRIC: IC50 at 72 h

>>> result_value("CO[C@H]1/C=C\\C=C(/C)C(=O)NC2=CC(=O)C(NCc3cn(Cc4ccc(Cl)cc4)nn3)=C(C[C@@H](C)C[C@H](OC)[C@H](O)[C@@H](C)/C=C(\\C)[C@@H]1OC(N)=O)C2=O")
"440 nM"
>>> result_value("CO[C@H]1/C=C\\C=C(/C)C(=O)NC2=CC(=O)C(NCCn3cc(-c4ccsc4)nn3)=C(C[C@@H](C)C[C@H](OC)[C@H](O)[C@@H](C)/C=C(\\C)[C@@H]1OC(N)=O)C2=O")
"2070 nM"
>>> result_value("Cc1c2oc3c(C)ccc(C(=O)N[C@@H]4C(=O)N[C@H](C(C)C)C(=O)N5CCC[C@H]5C(=O)N(C)CC(=O)N(C)[C@@H](C(C)C)C(=O)O[C@@H]4C)c3nc-2c(C(=O)N[C@@H]2C(=O)N[C@H](C(C)C)C(=O)N3CCC[C@H]3C(=O)N(C)CC(=O)N(C)[C@@H](C(C)C)C(=O)O[C@@H]2C)c(N)c1=O [DACTINOMYCIN] (I: T[dV]P[Sar][NMeV] / II: T[dV]P[Sar][NMeV]; ester I:1-I:C, II:1-II:C; linker I:N-II:N via Actinocin(9to1))")
"1630 nM"
>>> result_value("CO[C@H]1/C=C\\C=C(/C)C(=O)NC2=CC(=O)C(NCCn3cc(-c4ccccn4)nn3)=C(C[C@@H](C)C[C@H](OC)[C@H](O)[C@@H](C)/C=C(\\C)[C@@H]1OC(N)=O)C2=O")
"2410 nM"
